species: Mus musculus; assay: Tested for antagonism of nicotine-induced death (D) in mice; assay type: functional
Would you mind sorting the entries by ED50 according to these classes? low-valued = under 0.3 mg/kg, mid-valued = from 0.3 mg/kg up to 2 mg/kg, high-valued = 2 mg/kg and over

Query :: Band assignment needed for "CCN(CC)Cc1nnc2n1-c1ccc(Cl)cc1C(c1ccccc1)=NC2" please.
Result :: low-valued

Query :: Moving on to the next compound: "CN(C)Cc1nnc2n1-c1ccc(Cl)cc1C(c1ccccc1Cl)=NC2"
Result :: low-valued

Query :: Follow-up entry: "Clc1ccc2c(c1)C(c1ccccc1)=NCc1nnc(CN3CCN(c4ccccc4)CC3)n1-2"
Result :: high-valued

Query :: Repeat for the following compound: "CN(C)CCCc1nnc2n1-c1ccc(Cl)cc1C(c1ccccc1)=NC2"
Result :: high-valued

Query :: Try "C#CCNCc1nnc2n1-c1ccc(Cl)cc1C(c1ccccc1)=NC2" next.
Result :: mid-valued

Query :: Record: "NOCc1nnc2n1-c1ccc(Cl)cc1C(c1ccccc1)=NC2"
Result :: low-valued

Query :: Also need "CN1C(=O)CN=C(c2ccccc2)c2cc(Cl)ccc21" , thanks.
Result :: low-valued

Query :: Let us now turn to "CN(C)CCc1nnc2n1-c1ccc(Cl)cc1C(c1ccccc1)=NC2"
Result :: high-valued

Query :: Now the compound "C#CCN(C)Cc1nnc2n1-c1ccc(Cl)cc1C(c1ccccc1)=NC2"
Result :: low-valued

Query :: Can you check CC(N)Cc1nnc2n1-c1ccc(Cl)cc1C(c1ccccc1)=NC2 (centres undefined) next?
Result :: high-valued

Query :: Then this compound: CC(N)c1nnc2n1-c1ccc(Cl)cc1C(c1ccccc1)=NC2 (centres undefined)
Result :: mid-valued

Query :: Same lookup for "CCN(CC)OCc1nnc2n1-c1ccc(Cl)cc1C(c1ccccc1)=NC2" , please.
Result :: mid-valued

Query :: Consider next the compound "Clc1ccc2c(c1)C(c1ccccc1)=NCc1nnc(CNC3CC3)n1-2" in the same way.
Result :: low-valued

Query :: Now consider "NCCc1nnc2n1-c1ccc(Cl)cc1C(c1ccccc1)=NC2" .
Result :: high-valued

Query :: Please answer likewise for "Clc1ccc2c(c1)C(c1ccccc1)=NCc1nnc(CNCC3CC3)n1-2"
Result :: low-valued

Query :: Then this compound: "C=CCN(C)Cc1nnc2n1-c1ccc(Cl)cc1C(c1ccccc1)=NC2"
Result :: mid-valued

Query :: What about this compound? "CN(C)CCCN1c2ccccc2CCc2ccccc21"
Result :: high-valued

Query :: Can you handle CC(c1nnc2n1-c1ccc(Cl)cc1C(c1ccccc1)=NC2)N(C)C (centres undefined) next?
Result :: high-valued

---

organism: Mus musculus; experiment: Tested for antagonism of nicotine-induced death (D) in mice; assay type: functional
Flag rule - ED50 less than 5 mg/kg flags satisfied; the remaining entries get not satisfied.

Query :: Item "CN(C)Cc1nnc2n1-c1ccc(Cl)cc1C(c1ccccc1)=NC2" : ED50 beneath 5 mg/kg, strictly?
Result :: satisfied

Query :: Try "Clc1ccc2c(c1)C(c1ccccc1)=NCc1nnc(CCCN3CCN(c4ccccc4)CC3)n1-2" next.
Result :: not satisfied

Query :: Then "Clc1ccc2c(c1)C(c1ccccc1)=NCc1nnc(CN3CCCC3)n1-2" ?
Result :: satisfied

Query :: Another molecule to look at: "NCc1nnc2n1-c1ccc(Cl)cc1C(c1ccccc1)=NC2"
Result :: satisfied
